The following compounds are listed with their measured Plant response rating, Surinam Grass values.
test system: Surinam grass (Brachiaria decumbens); test: Test B pre-/postemergence plant response; assay type: in vivo; details: Preemergence, 31 g ai/ha; scale 0 to 100 (0 no effect, 100 complete control)

Using the record for `O=C1CCCC([O-])=C1C(=O)c1cnc(-c2ccccc2)n(-c2ccccc2)c1=O.[K+]` , report its Plant response rating, Surinam Grass. 0

Entry under review: `CCc1cccc(-n2c(-c3ccccc3)ncc(C(=O)C3=C(O)CCCC3=O)c2=O)c1` . Reported Plant response rating, Surinam Grass? 10

For `CCCCc1ncc(C(=O)C2=C(O)CCCC2=O)c(=O)n1-c1ccccc1C` , what is its reported Plant response rating, Surinam Grass? 5

So what does the record say about Plant response rating, Surinam Grass for `Cc1ccc(Cl)cc1-n1c(-c2ccccc2)ncc(C(=O)C2=C(O)CCCC2=O)c1=O` ? 10

May I ask what Plant response rating, Surinam Grass has been recorded for `O=C1CCCC(O)=C1C(=O)c1cnc(-c2ccccc2)n(-c2ccccc2Br)c1=O` ? 0

What value of measured Plant response rating, Surinam Grass is listed for `CCCc1ncc(C(=O)C2=C(O)CCCC2=O)c(=O)n1CCC` ? 45

###

system: pigweed (Amaranthus retroflexus); test: Test A pre-/postemergence plant response; type: in vivo; conditions: Preemergence, 125 g ai/ha; 0 to 100 scale, 0 = no effect, 100 = complete control
Heads up, the class ranges for Plant response rating, Pigweed are low = under 50, intermediate = from 50 up to 90, high = 90 and over

Previously resolved entries follow.
{"compound": "Cc1ccc(-n2c(-c3cccc(Cl)c3)ncc(C(=O)C3=C(O)CCCC3=O)c2=O)cc1", "category label": "intermediate"}
{"compound": "CCc1ccc(-n2c(-c3cccc(Br)c3)ncc(C(=O)C3=C(O)CCCC3=O)c2=O)cc1", "category label": "intermediate"}
{"compound": "COCCn1c(-c2cccc(Br)c2)ncc(C(=O)C2=C(O)CCCC2=O)c1=O", "category label": "intermediate"}

Now look at this one.
# classify by Plant response rating, Pigweed band: `Cc1ccc(Cl)cc1-n1c(-c2ccccc2)ncc(C(=O)C2=C(O)CCCC2=O)c1=O` high

###

# Plant response rating, Ryegrass, Italian per record follows
system: Italian ryegrass (Lolium multiflorum); assay: Test B pre-/postemergence plant response; type: in vivo; conditions: Postemergence; 62 g ai/ha; scale 0 to 100 (0 no effect, 100 complete control)
Would you mind answering with just the numeric figure?

{"molecule": "COCCCn1c(-c2cc(F)cc(F)c2)ncc(C(=O)C2=C(O)C3CCC(C3)C2=O)c1=O (stereo not shown) [Compound 244]", "observable": "Plant response rating, Ryegrass, Italian", "val": 60}

So what's the measured Plant response rating, Ryegrass, Italian for this one? CCc1cccc(-n2c(-c3ccccc3)ncc(C(=O)C3=C(O)CCCC3=O)c2=O)c1 [Compound 220] 5

# get_value(readout='Plant response rating, Ryegrass, Italian', item= CCCc1ncc(C(=O)C2=C(O)CCCC2=O)c(=O)n1-c1ccccc1 [Compound 217] ) 30

Returns the measured Plant response rating, Ryegrass, Italian for the input molecule. Input: CCn1c(-c2cccc(F)c2)ncc(C(=O)C2=C(O)C3CCC(C3)C2=O)c1=O (stereo not shown) [Compound 236] 0

###

system: purslane (common purslane, Portulaca oleracea); assay: Test D pre-/postemergence plant response; format: in vivo; details: Postemergence; 62 g ai/ha; scale 0 to 100 (0 no effect, 100 complete control)
The following compounds are shown together with reported Plant response rating, Purslane values.
Answer with the value's number alone.

Answered cases to consult:
{"compound": "O=C1CCCC(O)=C1C(=O)c1cnc(-c2cccnc2)n(-c2ccccc2)c1=O", "val": 50}
{"compound": "Cc1c(F)cccc1-n1c(-c2ccccc2)ncc(C(=O)C2=C(O)CCCC2=O)c1=O", "val": 30}
{"compound": "CCCCn1c(-c2ccccc2)ncc(C(=O)C2=C(O)C3CCC(C3)C2=O)c1=O (centres unmarked)", "val": 35}
{"compound": "Cc1ccc(Cl)cc1-n1c(-c2ccccc2)ncc(C(=O)C2=C(O)CCCC2=O)c1=O", "val": 65}

Request body: readout Plant response rating, Purslane, system purslane (common purslane, Portulaca oleracea), query `Cc1ccc(F)c(-n2c(-c3ccccc3)ncc(C(=O)C3=C(O)CCCC3=O)c2=O)c1` . Return the value. 35

###

Overview of recorded Plant response rating, Lambsquarters for various compounds
tested on: lambsquarters (Chenopodium album); experiment: Test B pre-/postemergence plant response; format: in vivo; settings: Postemergence, 125 g ai/ha; visual rating after 13 to 15 days, scale 0 (no effect) to 100 (complete control)
Answer field: number only, no words.

Example entries and their recorded answers appear below.
{"smiles record": "O=C1CCCC(O)=C1C(=O)c1cnc(-c2cccs2)n(-c2ccccc2)c1=O", "Plant response rating, Lambsquarters": 95}
{"smiles record": "Cc1ccc(C)c(-n2c(-c3ccccc3)ncc(C(=O)C3=C(O)CCCC3=O)c2=O)c1", "Plant response rating, Lambsquarters": 90}
{"smiles record": "CC(C)Cc1ncc(C(=O)C2=C(O)CCCC2=O)c(=O)n1-c1ccccc1", "Plant response rating, Lambsquarters": 100}
{"smiles record": "O=C1CCCC([O-])=C1C(=O)c1cnc(-c2ccccc2)n(-c2ccccc2)c1=O.[K+]", "Plant response rating, Lambsquarters": 85}
{"smiles record": "Cc1cc(F)ccc1-n1c(-c2ccccc2)ncc(C(=O)C2=C(O)CCCC2=O)c1=O", "Plant response rating, Lambsquarters": 100}

Okay, next one:
Enter reported Plant response rating, Lambsquarters observed with lambsquarters (Chenopodium album) for `O=C1CCCC(O)=C1C(=O)c1cnc(-c2ccccc2)n(-c2ccc(F)cc2)c1=O` 90

###

test system: large crabgrass (Digitaria sanguinalis); assay: Test A pre-/postemergence plant response; assay type: in vivo; settings: Preemergence, 500 g ai/ha; visual injury, 0 to 100 scale (0 no effect, 100 complete control), approx. ten days
observable: Plant response rating, Crabgrass, Large
Reply: number alone, nothing else.

{"smiles record": "CCCn1c(-c2ccccc2F)ncc(C(=O)C2=C(O)CCCC2=O)c1=O", "tested target": "large crabgrass (Digitaria sanguinalis)", "observable": "Plant response rating, Crabgrass, Large", "val": 90}

Which Plant response rating, Crabgrass, Large value belongs to `O=C1CCCC(O)=C1C(=O)c1cnc(-c2ccccc2)n(C2CCOCC2)c1=O` ? 90

Give the measured Plant response rating, Crabgrass, Large of `O=C1CCCC(O)=C1C(=O)c1cnc(-c2ccccc2)n(-c2ccccc2Br)c1=O` . 50

# Plant response rating, Crabgrass, Large lookup, item `O=C1CCCC(O)=C1C(=O)c1cnc(-c2ccccc2)n(-c2ccc(F)cc2)c1=O` 100

###

system: Surinam grass (Brachiaria decumbens); experiment: Test B pre-/postemergence plant response; format: in vivo; conditions: Postemergence; 62 g ai/ha; scale 0 to 100 (0 no effect, 100 complete control)
Below, each entry is listed with its recorded Plant response rating, Surinam Grass.

{"compound": "COCCCn1c(-c2cc(F)cc(F)c2)ncc(C(=O)C2=C(O)C3CCC(C3)C2=O)c1=O (stereo not shown) [Compound 244]", "tested target": "Surinam grass (Brachiaria decumbens)", "val": 95}
{"compound": "CCCn1c(-c2ccccc2)ncc(C(=O)C2=C(O)C3CCC(C3)C2=O)c1=O (stereo not shown) [Compound 226]", "tested target": "Surinam grass (Brachiaria decumbens)", "val": 75}
{"compound": "CCn1c(-c2cccc(F)c2)ncc(C(=O)C2=C(O)C3CCC(C3)C2=O)c1=O (stereo not shown) [Compound 236]", "tested target": "Surinam grass (Brachiaria decumbens)", "val": 70}

// switching to the query compound
Form field: reported Plant response rating, Surinam Grass of CCCCn1c(C2CC2)ncc(C(=O)C2=C(O)CCCC2=O)c1=O [Compound 193] 65

###

Recorded Plant response rating, Wheat for the following compounds
system: wheat (Triticum aestivum); test: Test B pre-/postemergence plant response; type: in vivo; conditions: Postemergence, 125 g ai/ha; scale 0 to 100 (0 no effect, 100 complete control)
Provide a numeric answer; units are not to be included.

{"compound": "O=C1CCCC(O)=C1C(=O)c1cnc(-c2ccccc2)n(C2CC[S+]([O-])CC2)c1=O (mixture of isomers)", "Plant response rating, Wheat": 5}
{"compound": "Cc1ccc(-n2c(-c3cc(F)cc(F)c3)ncc(C(=O)C3=C(O)CCCC3=O)c2=O)cc1", "Plant response rating, Wheat": 35}
{"compound": "COCCn1c(-c2ccco2)ncc(C(=O)C2=C(O)CCCC2=O)c1=O", "Plant response rating, Wheat": 5}

If you can, please state the reported Plant response rating, Wheat value of `CCCn1c(-c2cccc(OC)c2)ncc(C(=O)C2=C(O)CCCC2=O)c1=O` . 15

###

tested on: yellow nutsedge (Cyperus esculentus); assay: Test B pre-/postemergence plant response; type: in vivo; details: Preemergence, 62 g ai/ha; scale 0 to 100, 0 no effect, 100 complete control
molecules and their reported Plant response rating, Nutsedge, Yellow
Just the number, please, no unit after it.

Reference set, count: 3
{"molecule": "O=C1CCCC(O)=C1C(=O)c1cnc(-c2cccc(Br)c2)n(-c2ccccc2)c1=O [Compound 69]", "val": 0}
{"molecule": "CCCCn1c(CCC)ncc(C(=O)C2=C(O)CCCC2=O)c1=O [Compound 75]", "val": 80}
{"molecule": "CCCCn1c(C2CC2)ncc(C(=O)C2=C(O)CCCC2=O)c1=O [Compound 193]", "val": 65}

# input molecule: Cc1ccc(C)c(-n2c(-c3ccccc3)ncc(C(=O)C3=C(O)CCCC3=O)c2=O)c1 [Compound 29] ; wanted: its Plant response rating, Nutsedge, Yellow 30
